Experiment: Solubility of the compound in ethanol
Assay type: physicochemical
metric: solubility

compound	solubility
O=C(N/N=C1/C(=O)Nc2ccccc21)Nn1c(-c2ccccc2)nc2ccccc2c1=O	soluble
CN(C)c1ccc(/C=N/NC(=O)Nn2c(-c3ccccc3)nc3ccccc3c2=O)cc1	soluble
O=C(NN=C(c1ccccc1)c1ccccc1)Nn1c(-c2ccccc2)nc2ccccc2c1=O	soluble
CC12CCC(C/C1=N/NC(=O)Nn1c(-c3ccccc3)nc3ccccc3c1=O)C2(C)C (stereo not given)	soluble

Let us examine a further case.
Look up solubility: `COc1cc(/C=N/NC(=O)Nn2c(-c3ccccc3)nc3ccccc3c2=O)ccc1O` soluble

====

System: Salmonella paratyphi
Experiment: Antibacterial activity against Salmonella enterica subsp. enterica serovar Paratyphi A NCIM […] after 18 hr by disk diffusion method
Format: functional
metric: diameter of the inhibition zone (DIZ) (mm)
Provide the reading as a plain figure in mm.

Some compounds with known diameter of the inhibition zone (DIZ) results, for comparison:
compound	target.desc	reading.unit	measurement
O=C(NN=C(c1ccccc1)c1ccccc1)Nn1c(-c2ccccc2)nc2ccccc2c1=O	Salmonella paratyphi	mm	16
CC12CCC(C/C1=N/NC(=O)Nn1c(-c3ccccc3)nc3ccccc3c1=O)C2(C)C (stereo unspecified)	Salmonella paratyphi	mm	15
COc1cc(/C=N/NC(=O)Nn2c(-c3ccccc3)nc3ccccc3c2=O)ccc1O	Salmonella paratyphi	mm	15
O=C(O)c1cn(C2CC2)c2cc(N3CCNCC3)c(F)cc2c1=O	Salmonella paratyphi	mm	8
O=C(N/N=C1/C(=O)Nc2ccccc21)Nn1c(-c2ccccc2)nc2ccccc2c1=O	Salmonella paratyphi	mm	16

Next:
I have this compound here, `CN(C)c1ccc(/C=N/NC(=O)Nn2c(-c3ccccc3)nc3ccccc3c2=O)cc1` , and I need its recorded diameter of the inhibition zone (DIZ). 15

====

Test system: Klebsiella aerogenes
Test: Antibacterial activity against Enterobacter aerogenesNCIM 2075 after 18 hr by disk diffusion method; also: test concentration or dose not given here
Assay type: functional, NCIM 2075
Examples of compounds with documented diameter of the inhibition zone (DIZ) follow.
Answer format: numeric, mm implied, no suffix.

compound	target.desc	diameter of the inhibition zone (DIZ), mm
O=C(O)c1cn(C2CC2)c2cc(N3CCNCC3)c(F)cc2c1=O	Klebsiella aerogenes	10
O=C(N/N=C1/C(=O)Nc2ccccc21)Nn1c(-c2ccccc2)nc2ccccc2c1=O	Klebsiella aerogenes	17
O=C(NN=C(c1ccccc1)c1ccccc1)Nn1c(-c2ccccc2)nc2ccccc2c1=O	Klebsiella aerogenes	15
CN(C)c1ccc(/C=N/NC(=O)Nn2c(-c3ccccc3)nc3ccccc3c2=O)cc1	Klebsiella aerogenes	17

Record request: diameter of the inhibition zone (DIZ) value, item CC12CCC(C/C1=N/NC(=O)Nn1c(-c3ccccc3)nc3ccccc3c1=O)C2(C)C (stereo unspecified) 16

Endpoint output: diameter of the inhibition zone (DIZ) of `COc1cc(/C=N/NC(=O)Nn2c(-c3ccccc3)nc3ccccc3c2=O)ccc1O` . Value? 16

====

System: Proteus vulgaris
Experiment: Antibacterial activity against Proteus vulgaris NCIM 2239 after 18 hr by disk diffusion method; also: test concentration or dose not given here
Assay type: functional
metric: diameter of the inhibition zone (DIZ) (mm)
Respond with the bare value in mm.

compound	metric	reading.unit	measurement
COc1cc(/C=N/NC(=O)Nn2c(-c3ccccc3)nc3ccccc3c2=O)ccc1O	diameter of the inhibition zone (DIZ)	mm	16
O=C(O)c1cn(C2CC2)c2cc(N3CCNCC3)c(F)cc2c1=O	diameter of the inhibition zone (DIZ)	mm	8
O=C(N/N=C1/C(=O)Nc2ccccc21)Nn1c(-c2ccccc2)nc2ccccc2c1=O	diameter of the inhibition zone (DIZ)	mm	17
O=C(NN=C(c1ccccc1)c1ccccc1)Nn1c(-c2ccccc2)nc2ccccc2c1=O	diameter of the inhibition zone (DIZ)	mm	16

Given the entry `CN(C)c1ccc(/C=N/NC(=O)Nn2c(-c3ccccc3)nc3ccccc3c2=O)cc1` , what diameter of the inhibition zone (DIZ) was observed with Proteus vulgaris? 18

Field: diameter of the inhibition zone (DIZ) (Proteus vulgaris). Entry: CC12CCC(C/C1=N/NC(=O)Nn1c(-c3ccccc3)nc3ccccc3c1=O)C2(C)C (stereo unspecified) 17

====

Experiment: Solubility of the compound in dilute acids
Assay type: physicochemical
metric: solubility

For orientation, consider the following solved cases.
compound	metric	measurement
O=C(NN=C(c1ccccc1)c1ccccc1)Nn1c(-c2ccccc2)nc2ccccc2c1=O	solubility	Insoluble
CC12CCC(C/C1=N/NC(=O)Nn1c(-c3ccccc3)nc3ccccc3c1=O)C2(C)C (stereo not given)	solubility	Insoluble
COc1cc(/C=N/NC(=O)Nn2c(-c3ccccc3)nc3ccccc3c2=O)ccc1O	solubility	soluble
O=C(N/N=C1/C(=O)Nc2ccccc21)Nn1c(-c2ccccc2)nc2ccccc2c1=O	solubility	soluble

As a next step, examine the compound that follows.
For the compound `CN(C)c1ccc(/C=N/NC(=O)Nn2c(-c3ccccc3)nc3ccccc3c2=O)cc1` , what solubility is on record? Insoluble
